test system: HCT-116 (Colon); assay: Sulforhodamine B cytotoxicity assay; assay type: cell-based; conditions: Homo sapiens, HCT-116, 48 h, read-out: Human cancer cell lines IC50 HCT-116 (Colon)
pIC50: −log10 of the molar value.
Measurement Name: pIC50

Compound: COc1cc(C2c3c(cc(OC)c(OC)c3OC)C(=O)C2Cc2ccc3c(c2)OCO3)cc(OC)c1OC (stereo not shown)
Number: 5.52

====

test system: various human cancer cell lines; assay: Cytotoxicity against various human cancer cell lines (summary statement); format: cell-based; conditions: read-out: cytotoxicity against various human cancer cell lines, IC50
pIC50: −log10 of the molar value.
Measurement Name: pIC50

Compound: COc1cc(C2c3c(cc(OC)c(OC)c3OC)C(=O)C2Cc2ccc3c(c2)OCO3)cc(OC)c1OC (stereo not shown)
Result: 5.52 to 6.00
